- Test system: V79-379A (Chinese hamster lung fibroblasts)
- Test description: Cytotoxicity in nitrogen (MMT assay).
Entries and their log10(C50) values follow.
Recorded endpoint: log10(C50) (log10 of the value in mM)

>>> reported_measurement("O=[N+]([O-])c1nccn1CC(O)CN1CC1 (stereo not drawn)")
-2.35
>>> reported_measurement("C=CCNC(=O)c1ccc([N+](=O)[O-])o1")
-1.35
>>> reported_measurement("C[C@@H]1[C@H](C)N1CC(O)CNC(=O)c1ccc([N+](=O)[O-])o1 (stereo partly drawn)")
-1.70
>>> reported_measurement("C[C@@H]1[C@H](C)N1CC(O)CNC(=O)/C=C/c1ccc([N+](=O)[O-])o1 (stereo partly drawn)")
-1.40
>>> reported_measurement("C=CCNC(=O)c1cc([N+](=O)[O-])c(C)o1")
-1.52
>>> reported_measurement("CC1(C)CN1CC(O)CNC(=O)c1ccc([N+](=O)[O-])o1 (stereo not drawn)")
-1.12
>>> reported_measurement("C[C@@H]1[C@H](C)N1CC(O)CNC(=O)C1OC1c1ccc([N+](=O)[O-])o1 (stereo partly drawn)")
-1.92
>>> reported_measurement("O=C(NCC1CO1)c1ccc([N+](=O)[O-])o1 (stereo not drawn)")
-1.30

* * *

- Test system: V79-379A (Chinese hamster lung fibroblasts)
- Test description: Cytotoxicity in air (MMT assay).
Entries and their C50 values follow.
Recorded endpoint: C50

>>> reported_measurement("CC1(C)CN1CC(O)CNC(=O)/C=C/c1ccc([N+](=O)[O-])o1 (stereo not given)")
"0.045 mM"
>>> reported_measurement("C=CCNC(=O)c1cc([N+](=O)[O-])c(C)o1")
"0.015 mM"
>>> reported_measurement("CC(C)(CO)NC(=O)c1ccc([N+](=O)[O-])o1")
"0.25 mM"
>>> reported_measurement("Br.O=[N+]([O-])c1nccn1CC(O)CNCCBr (stereo not given)")
"2.3 mM"
>>> reported_measurement("C[C@@H]1[C@H](C)N1CC(O)CNC(=O)C1OC1c1ccc([N+](=O)[O-])o1 (stereo not given in full)")
"0.012 mM"
>>> reported_measurement("Br.C[C@H](Br)[C@H](C)NCC(O)CNC(=O)c1ccc([N+](=O)[O-])o1 (stereo not given in full)")
"0.14 mM"
>>> reported_measurement("C=CCOC(=O)c1ccc([N+](=O)[O-])o1")
"0.1 mM"
>>> reported_measurement("Cc1oc([N+](=O)[O-])cc1C(=O)NCC1CO1 (stereo not given)")
"0.1 mM"
>>> reported_measurement("CC1(C)CN1CC(O)CNC(=O)c1ccc([N+](=O)[O-])o1 (stereo not given)")
"0.15 mM"
>>> reported_measurement("Br.NC(=O)N/N=C/c1ccc([N+](=O)[O-])o1")
"1.7 mM"
>>> reported_measurement("C=CCNC(=O)c1cc([N+](=O)[O-])oc1C")
"0.35 mM"
>>> reported_measurement("O=C(/C=C/c1ccc([N+](=O)[O-])o1)NCC1CO1 (stereo not given)")
"0.03 mM"
>>> reported_measurement("O=[N+]([O-])c1nccn1CC(O)CN1CC1 (stereo not given)")
"0.3 mM"
>>> reported_measurement("C[C@@H]1[C@H](C)N1CC(O)CNC(=O)/C=C/c1ccc([N+](=O)[O-])o1 (stereo not given in full)")
"0.07 mM"
>>> reported_measurement("O=C(NCC1CO1)c1ccc([N+](=O)[O-])o1 (stereo not given)")
"0.05 mM"
>>> reported_measurement("C=CCNC(=O)c1ccc([N+](=O)[O-])o1")
"0.08 mM"
>>> reported_measurement("C=CCNC(=O)/C=C/c1ccc([N+](=O)[O-])o1")
"0.06 mM"
>>> reported_measurement("C[C@@H]1[C@H](C)N1CC(O)CNC(=O)c1ccc([N+](=O)[O-])o1 (stereo not given in full)")
"0.06 mM"
>>> reported_measurement("COCC(O)Cn1ccnc1[N+](=O)[O-] (stereo not given)")
"45 mM"
>>> reported_measurement("CC1(C)CN1C(=O)c1ccc([N+](=O)[O-])o1")
"0.18 mM"

Cited source for all entries: ChEMBL document CHEMBL1125078
